# System: THRa homodimer (NR concentration 90 nM)
# MEASUREMENT PROTOCOL: PBM binding z-score (relative to random genomic background probes); higher = stronger binding; sequences stand for … in GC…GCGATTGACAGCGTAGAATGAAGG
QUANTITY NAME: PBM binding z-score
Note: the reply should be a number with no unit written.

CGCACTAGGTCATTGACAGGACAGTGAATAGTAA; 1.16
CCGAGTAGGTTACGAGGGGACATTCAGTGCGAAT; 0.165
CGTCCAAGGTCATAGGAGGTCACTGAAGACAGAT; 3.68

Exam item: Give its PBM binding z-score value. Item: CTTACTGGGCCAAAGGTCATTGATTCCAATGCTC
Marked response: 0.898

Exam item: Please do the same for CTATGTAGGTTAAGGGGATCATTCAGTTTGAAAG as well.
Marked response: 0.136

Exam item: Please do the same for CTATGTAGGTAAAGGGGGTCATTCAGTTTGAAAG as well.
Marked response: 1.73

Exam item: Please do the same for CGAACTAGGTCACCAGGACAATGAAGAGGTTGGA as well.
Marked response: 2.12

Exam item: Please do the same for AGTCAAAGTTCAGGACGAGGTACCGTAAAGCACG as well.
Marked response: 0.724

Exam item: Please do the same for CTATGTAGCTTAAGGGGGTCATTCAGTTTGAAAG as well.
Marked response: 2.41

Exam item: Please do the same for GATACAGGGTGAAGGCCAGAGTACGCGTATTGAT as well.
Marked response: -0.473

Exam item: Please do the same for CCTAGTTGGTCAGGAGGTCCCACACCGGATATGA as well.
Marked response: 0.411

Exam item: Please do the same for CGAACTAGGTCACAGGACAGTGAAAGGCGACGTA as well.
Marked response: 0.815
